- measurement.protocol: 3H-heparin binding assay (affinity and capacity)
- applied.conditions: read-out: Heparin Affinity
Classification field. Basis: Kd. Definitions: LOW = under 200 nM, MID = from 200 nM up to 800 nM, HIGH = 800 nM and over

Sort KWKAQWRFLKKWKAQWRFLKKWKAQWRFLK [BPI.99] into one of the categories.
HIGH

----------
- Tested on: E. coli 0111:B4 (smooth) bacteria
- measurement.protocol: Radial diffusion bactericidal assay, E. coli 0111:B4
- Type: cell-based
- applied.conditions: radial diffusion; PROBIT analysis; E. coli O111:B4 (smooth)
Bridge positions count the residues as written; N and C are the ends. Square brackets hold non-standard residues; d marks the D form. Peptide text beside a SMILES is read from it. 1Nal = N[C@@H](Cc1cccc2ccccc12)C(=O)O
Listed compounds paired with reported pmol added to well to achieve a 30 mm^2 bactericidal zone, E. coli O111:B4

CC[C@H](C)[C@H](NC(=O)[C@H](CC(C)C)NC(=O)[C@H](Cc1cccc2ccccc12)NC(=O)CNC(=O)[C@@H](NC(=O)[C@H](CCCCN)NC(=O)[C@H](CO)NC(=O)[C@@H](N)CCCCN)C(C)C)C(=O)N[C@@H](CCC(N)=O)C(=O)N[C@@H](CC(C)C)C(=O)N[C@@H](Cc1ccccc1)C(=O)N[C@@H](Cc1c[nH]cn1)C(=O)N[C@@H](CCCCN)C(=O)N[C@@H](CCCCN)C(=O)O [BPI.83] (H-KSKVG[1Nal]LIQLFHKK-OH) ... 51,147.55 pmol

Continue with the compound presented below.
For record C[C@@H]1NC(=O)[C@H](CCCCN)NC(=O)[C@H](Cc2c[nH]c3ccccc23)NC(=O)[C@H](CCCCN)NC(=O)[C@@H](N)CSSC[C@@H](C(N)=O)NC(=O)[C@H](Cc2ccccc2)NC(=O)[C@H](CCCNC(=N)N)NC(=O)[C@H](CCCCN)NC(=O)[C@H](CCC(N)=O)NC1=O [BPI.169] (H-CKWKAQKRFC-NH2; disulfide 1-10; N-terminus and C-terminus assumed) the listed pmol added to well to achieve a 30 mm^2 bactericidal zone, E. coli O111:B4 is 36,025.95 pmol

----------
// reported pKd per item
- measurement.protocol: LPS binding by tryptophan fluorescence quenching
- applied.conditions: Stern-Volmer plots
- Description: The naturally-occurring amino acid tryptophan can emit light (i.e., it fluoresces) having a wavelength between 300 and 400 nm after excitation with light having a wavelength of between about 280 nm and 290 nm, preferably 285 nm. The amount of emitted light produced by such fluorescence is known to be affected by the local environment, including pH and buffer conditions, as well as binding interactions between proteins and other molecules. […]
Ends that are not written are not given here.
Friendly reminder that pKd comes from taking -log10 of the concentration in mol/L.

Past entries and their recorded results:
KWKAQKRFLKKWKAAARFLK [BPI.47] ... 6.94
KWKAAARFLKKWKAAARFLKKWKAAARFLK [BPI.69] ... 7.24
KWKAAARFLKKWKAAARFLK [BPI.48] ... 7.08

Given item BPI 73 (IKISGKWKAQFRFLK) , the value recorded as its pKd is 7.18

----------
- measurement.protocol: 3H-heparin binding assay (affinity and capacity)
- applied.conditions: heparin bound at saturation
Ends that are not written are not given here.
Heparin Capacity by entry:
# unit: ng | format: bare number

KSKVGWLIQLFHKKKWKAQKRFLK [BPI.74] ... 207.3
IKISGKAKAQKRFLK [BPI.21] ... 50.9

Record KSKVGWLIQLWHKK [BPI.82] . Reported Heparin Capacity: 163.1

Notebook: IKISGKWKAKKRFLK [BPI.79] , Heparin Capacity read as 110.2

Consider IKISGKWKAQKRFLK [BPI.2] . Its measured Heparin Capacity is 203.6

In plain terms, KWKAAARFLKKWKAAARFLKKWKAAARFLK [BPI.69] has a documented Heparin Capacity of 450.8
